System: CD2F1 mice, L1210 leukemia ip, survival T/C
Experiment: NCI In Vivo Anticancer Drug Screen. Data for tumor model L1210 Leukemia (intraperitoneal) in CD2F1 (CDF1) mice
Conditions: endpoint: median survival time; dose: 25.0 mg/kg/injection; schedule: Q01DX005 (ip); vehicle: distilled water + Tween-80; higher = longer survival
Description: The antitumor activity of compounds was measured in mice bearing transplantable tumors. Survival or tumor size were measured and the results are expressed as the measurement made in the treated group (T) divided by the measurement made in the vehicle treated control group (C). The tumor model used in this assay is L1210 Leukemia (intraperitoneal) in CD2F1 (CDF1) mice
Toxic doses and inconclusive results are not listed.
property: T/C

CC(=O)OCC1OC(n2ncnc2CI)C(OC(C)=O)C(OC(C)=O)C1OC(C)=O (centres undefined) = 105 % of control
C[As](C)SCC1OC(n2ncc(=O)[nH]c2=O)C2OC(C)(C)OC12 (centres undefined) = 105 % of control
COC(=O)c1ncn(C2OC(COC(=O)c3ccccc3)C(OC(=O)c3ccccc3)C2OC(=O)c2ccccc2)c1C(=O)OC (centres undefined) = 90 % of control

Let us examine a further case.
Name the reported T/C value associated with the molecule Cc1cn(C2CC(O)C(CO)O2)c(=O)nc1NC1CCCCCCCCCCC1 (centres undefined)
102 % of control
